Recorded values, source ChEMBL document CHEMBL1961873.

System: Tyrosine-protein kinase ABL1 (Homo sapiens), P00519 [E255K]
Sequence (P00519 whole entry E255K): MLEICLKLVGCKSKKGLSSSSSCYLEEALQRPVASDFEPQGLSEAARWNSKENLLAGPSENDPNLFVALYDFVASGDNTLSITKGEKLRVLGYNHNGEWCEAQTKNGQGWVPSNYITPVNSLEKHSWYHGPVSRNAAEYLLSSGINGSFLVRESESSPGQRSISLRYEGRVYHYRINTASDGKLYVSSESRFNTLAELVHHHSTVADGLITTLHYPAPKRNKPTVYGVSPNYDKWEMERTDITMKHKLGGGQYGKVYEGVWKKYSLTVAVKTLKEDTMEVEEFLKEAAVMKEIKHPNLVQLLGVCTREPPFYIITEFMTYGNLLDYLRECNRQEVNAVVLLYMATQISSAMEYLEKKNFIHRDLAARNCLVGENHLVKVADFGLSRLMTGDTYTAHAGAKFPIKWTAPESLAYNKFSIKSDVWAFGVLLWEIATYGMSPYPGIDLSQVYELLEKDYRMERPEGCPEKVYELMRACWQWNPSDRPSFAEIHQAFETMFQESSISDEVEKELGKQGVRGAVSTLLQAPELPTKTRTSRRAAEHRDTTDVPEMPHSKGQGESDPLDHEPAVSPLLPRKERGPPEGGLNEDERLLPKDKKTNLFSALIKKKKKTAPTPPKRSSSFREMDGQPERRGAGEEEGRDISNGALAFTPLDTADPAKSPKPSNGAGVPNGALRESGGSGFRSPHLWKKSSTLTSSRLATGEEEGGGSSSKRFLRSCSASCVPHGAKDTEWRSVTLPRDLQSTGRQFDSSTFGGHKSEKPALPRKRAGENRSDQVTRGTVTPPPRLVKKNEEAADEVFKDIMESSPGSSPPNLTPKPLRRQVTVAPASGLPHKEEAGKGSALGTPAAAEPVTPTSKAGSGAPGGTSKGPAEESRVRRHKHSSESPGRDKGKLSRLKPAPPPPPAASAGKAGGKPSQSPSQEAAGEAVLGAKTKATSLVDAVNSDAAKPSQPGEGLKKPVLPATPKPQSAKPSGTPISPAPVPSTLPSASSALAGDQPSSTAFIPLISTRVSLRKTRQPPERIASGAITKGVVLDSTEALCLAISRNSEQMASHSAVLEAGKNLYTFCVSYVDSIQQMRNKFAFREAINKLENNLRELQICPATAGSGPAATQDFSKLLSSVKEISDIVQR
EXPERIMENTAL_CONDITIONS: at 1 µM
READOUT_KIND: inhibition

Query: For the molecule `COc1cc2ncn(-c3cc(O[C@@H](C)c4ccccc4Cl)c(C(N)=O)s3)c2cc1OC` , what inhibition is on record?
Reply: 21.4%

Query: Entry under review: `CCc1cccc(NC(=O)Nc2ccc(Oc3ccc4nc(NC(=O)OC)[nH]c4c3)cc2)c1` . Reported inhibition?
Reply: 14.3%

Query: Can you share its inhibition? I mean this molecule: `NS(=O)(=O)c1ccc(N/N=C2\C(=O)Nc3ccc(C(=O)NCCc4c[nH]cn4)cc32)cc1`
Reply: 6.98%

Query: Would you mind telling me what inhibition value was observed for `CN1CCC(C(=O)Nc2n[nH]c3nnc(-c4ccccc4)cc23)CC1` ?
Reply: 6.11%

====

TARGET: Serine/threonine-protein kinase 4 (Homo sapiens);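 note: mean inhibition of MST1, part of the GSK PKIS dataset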
Sequence (whole entry): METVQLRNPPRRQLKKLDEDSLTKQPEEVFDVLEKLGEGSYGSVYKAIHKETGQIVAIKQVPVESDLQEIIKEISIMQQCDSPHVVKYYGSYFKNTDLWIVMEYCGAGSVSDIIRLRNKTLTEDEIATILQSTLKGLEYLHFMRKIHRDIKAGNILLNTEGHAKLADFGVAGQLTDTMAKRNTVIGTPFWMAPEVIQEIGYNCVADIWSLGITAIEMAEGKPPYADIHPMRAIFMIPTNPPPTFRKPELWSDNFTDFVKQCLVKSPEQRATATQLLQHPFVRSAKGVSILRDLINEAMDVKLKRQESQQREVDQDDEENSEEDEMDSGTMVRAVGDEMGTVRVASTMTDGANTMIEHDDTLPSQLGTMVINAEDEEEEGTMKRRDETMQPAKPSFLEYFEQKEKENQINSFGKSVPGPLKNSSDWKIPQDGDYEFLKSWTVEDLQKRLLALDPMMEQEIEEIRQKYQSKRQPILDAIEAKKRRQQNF
EXPERIMENTAL_CONDITIONS: at 1 µM
Kind request: treat 6% as inclusive, so inhibition at 6% or higher is condition met, anything lower is condition not met.

Query: Identify whether the reported inhibition of the following compound is 6% or greater: `CCCN1CCC(Oc2cc(Nc3nc(Nc4cccc(F)c4C(N)=O)c4cc[nH]c4n3)c(OC)cc2Cl)CC1`
Reply: condition not met

Query: Quick check, inhibition >= 6%? `CCn1c(-c2nonc2N)nc2cncc(C(=O)N3CCNCC3)c21`
Reply: condition not met

Query: Decide: is the reported value of inhibition for `Cn1cc(C=C2C(=O)Nc3cccnc32)c2ccccc21` equal to or greater than 6%?
Reply: condition met

Query: Tell me whether inhibition is at least 6% here: `Cc1ccc(C(=O)NC2CCCCC2)cc1-c1ccc(C(=O)NCC2CC2)cc1`
Reply: condition not met

Query: Quick check: does `CN1CCC(C(=O)Nc2n[nH]c3nnc(-c4ccccc4)cc23)CC1` have inhibition greater than or equal to 6%?
Reply: condition met

Query: Confirm if inhibition reported for the compound `c1cnn2ncc(-c3ccnc(Nc4ccc5c(c4)OCCO5)n3)c2c1` is 6% or above.
Reply: condition met

Query: State whether the measured inhibition reaches 6%, counting equality as reaching it, for `CS(=O)(=O)CCNCc1ccc(-c2ccc3ncnc(Nc4ccc(OCc5cccc(F)c5)c(C(F)(F)F)c4)c3c2)o1`
Reply: condition not met

Query: hey, is inhibition for this one >= 6%? `Fc1cccc(COc2ccc(Nc3ncnc4cc(-c5ccc[nH]5)sc34)cc2Cl)c1`
Reply: condition not met

Query: Is it the case that `[O-][S+]1CCN(Cc2ccc(-c3ccc4ncnc(Nc5ccc(OCc6ccccc6)c(F)c5)c4c3)o2)CC1` has inhibition reaching or exceeding 6%?
Reply: condition not met

Query: Is reported inhibition greater than or equal to 6% here: `CS(=O)(=O)CCNCc1nc(-c2ccc3ncnc(Nc4ccc(F)c(Cl)c4)c3c2)cs1`
Reply: condition met

Query: Say whether `NS(=O)(=O)c1ccc(N/N=C2\C(=O)Nc3ccc(C(=O)NCCc4c[nH]cn4)cc32)cc1` shows inhibition of 6% or more.
Reply: condition met

Query: API: above_or_equal(metric=inhibition, cutoff=6%) for item `COc1ccc(COc2ccc(Cc3cnc(N)nc3N)cc2OC)cc1`
Reply: condition not met

Query: Does inhibition meet or surpass 6% for `COc1ccc(-c2coc3ncnc(N)c23)cc1` ?
Reply: condition met

Query: State whether the measured inhibition reaches 6%, counting equality as reaching it, for `NC(=O)c1ccc(-c2nc(-c3ccccn3)c(-c3ccc4c(c3)OCO4)[nH]2)cc1`
Reply: condition not met

Query: Can `Nc1nc(-c2ccccn2)c(-c2ccc3ncccc3n2)s1` be said to have inhibition at or above 6%?
Reply: condition met

Query: Record `COc1cc2ncn(-c3cc(OCc4ccccc4Cl)c(C(N)=O)s3)c2cc1OC` ; criterion: inhibition no lower than 6%. Met?
Reply: condition met

Query: Would you say `Cc1ccc(NC(=O)c2ccnc(N3CCCC3)c2)cc1-c1ccc(C(=O)NCC2CC2)cc1` shows inhibition at minimum 6%?
Reply: condition met

Query: Is the recorded value of inhibition equal to or greater than 6% for this compound? `Cc1nn(C)c2cc(N(C)c3ccnc(Nc4cccc(S(N)(=O)=O)c4)n3)ccc12`
Reply: condition not met

Query: Can `Nc1nc(-c2ccc3c(c2)C(=Cc2cc(Br)c(O)c(Br)c2)C(=O)N3)cs1` be said to have inhibition at or above 6%?
Reply: condition met

Query: I'd appreciate it if you could say whether `COC(=O)Nc1nc2cc(Oc3cccc(NC(=O)Nc4cc(C(F)(F)F)ccc4F)c3)ccc2[nH]1` has inhibition at least equal to 6%.
Reply: condition not met
